// values below are reported normalized growth
Assay: chemical genetic growth profiling, strain panel (AID 1159580);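 note: tested at 20 µM; growth read once vehicle control cultures reached saturation at 30 °C; 1 = growth at the plate median or of vehicle wells; lower values mean less growth of the strain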
Conditions: S. cerevisiae deletion strains, growth OD, locus YHR079C, strain IRE1, hits give low values
In all, about 5,500 compounds went through this assay and about 2,000 (36%) were called active. Roughly 18% stayed inconclusive and do not appear here. The list shows a part of the results.
The response must contain the number and no unit.

Here is how some molecules turned out for normalized growth.
O=C(O)c1cc2ccccc2[nH]1 : 1
NCC1CCC(C(=O)O)CC1 (configuration not stated) : 1.06
COc1cc(NC(C)CCCN)c2ncccc2c1 (configuration not stated) : 1.05
Cc1ccc2nc(-c3ccc(Cl)cc3)cn2c1 : 0.936
Cc1ccc(-c2csc(-c3cccnc3)n2)c(C)c1 : 0.839
CC(C)(C)CN/C(C#N)=C(/C#N)NCc1cccc(Cl)c1 : 0.995

We now examine a further molecule.
Form: molecule = CS(=NC(=O)c1cccc(Cl)c1)c1ccc(OC(=O)c2ccc(Cl)cc2)cc1 (configuration not stated) ; normalized growth = 1.1
